Each recorded value in this set is attributed to paper PMC12079475.

- measurementTarget: UniProt P0DTD1
- assayMethodText: biochemical
- conditionInfo: DTT buffer (Table S1); read-out: IC50 +DTT
pIC50: −log10 of the molar value. Structures can show the parent of a compound that is named as a salt.
resultType: pIC50

>>> measvalue("COc1cc2c(NC3CCN(C(C)C)CC3)nc(N3CCC(F)(F)CC3)nc2cc1OCCCN1CCCC1")
5.20
>>> measvalue("NCCNc1ccc(NCCN)c2c1C(=O)c1ccncc1C2=O [Pixantrone (dimaleate)]")
5.28
>>> measvalue("CCCCCCCCN=c1ccn(CCCCCCCCCCn2ccc(=NCCCCCCCC)cc2)cc1 [Octenidine dihydrochloride]")
5.42
>>> measvalue("C/C(=N\\NC(=N)N)c1cc(NC(=O)CCCCCCCCC(=O)Nc2cc(/C(C)=N/NC(=N)N)cc(/C(C)=N/NC(=N)N)c2)cc(/C(C)=N/NC(=N)N)c1")
6.21
>>> measvalue("CN[C@H](CC(C)C)C(=O)N[C@H]1C(=O)N[C@@H](CC(N)=O)C(=O)N[C@H]2C(=O)N[C@H]3C(=O)N[C@H](C(=O)N[C@H](C(=O)O)c4cc(O)cc(O)c4-c4cc3ccc4O)[C@H](O[C@H]3C[C@](C)(N)[C@@H](O)[C@H](C)O3)c3ccc(c(Cl)c3)Oc3cc2cc(c3O[C@@H]2O[C@H](CO)[C@@H](O)[C@H](O)[C@H]2O[C@H]2C[C@](C)(NCc3ccc(-c4ccc(Cl)cc4)cc3)[C@@H](O)[C@H](C)O2)Oc2ccc(cc2Cl)[C@H]1O.O=P(O)(O)O.O=P(O)(O)O [Oritavancin (diphosphate)]")
5.60
>>> measvalue("CCOC(=O)CCNc1cc(N2CCc3ccccc3CC2)nc(-c2ccccn2)n1 [GSK J4 HCl]")
5.26
>>> measvalue("COc1cc2c(NC3CCN(C(C)C)CC3)nc(C3CCCCC3)nc2cc1OCCCN1CCCC1")
5.55
>>> measvalue("Cc1[nH]c2ccc(F)cc2c1-c1nc2c3cccnc3c3ncccc3c2[nH]1")
5.11
>>> measvalue("O=C1C(Cl)=C(NCCN2CCOCC2)C(=O)c2ncccc21")
6.32
>>> measvalue("COc1cc2c(NC3CCN(C)CC3)nc(N3CCCN(C)CC3)nc2cc1OCCCN(C)C")
5.59
>>> measvalue("COCCn1c2c([n+](Cc3cnccn3)c1C)C(=O)c1ccccc1C2=O")
5.91
>>> measvalue("CC[N+](C)(CC)CCC[n+]1c(-c2ccccc2)c2cc(N)ccc2c2ccc(N)cc21.[I-].[I-] [Propidium‐iodide]")
6.02
>>> measvalue("COc1cc2c(cc1OC)CN(CCc1ccc(NC(=O)c3cccc4c(=O)c5cccc(OC)c5[nH]c34)cc1)CC2")
5.30
>>> measvalue("COc1cccc2c1C(=O)c1c(O)c3c(c(O)c1C2=O)C[C@@](O)(C(=O)CO)C[C@@H]3O[C@H]1C[C@H](N2CCO[C@H](OC)C2)[C@H](O)[C@H](C)O1")
5.58
>>> measvalue("COc1cc2c(NC3CCN(C)CC3)nc(N3CCCN(C)CC3)nc2cc1OCCOCCN(C)C")
5.41
>>> measvalue("COc1cccc(C=NCCN=Cc2cccc(OC)c2[O-])c1[O-].[Cl-].[Mn+3]")
5.48
>>> measvalue("Cc1cc2nc3ccc(N(C)C)cc3[s+]c2cc1N [Tolonium chloride]")
5.78

###

- measurementTarget: SARS‐CoV‐2 Nsp15 (Severe acute respiratory syndrome coronavirus 2, UniProt P0DTD1)
- assayMethodText: biochemical
- Type: biochemical
- conditionInfo: 10 µM, L-cysteine buffer; read-out: Inhibition % +L-Cys 10 µM
Structures can show the parent of a compound that is named as a salt.
resultType: inhibition at 10 µM (%)

>>> measvalue("CCOC(=O)CCNc1cc(N2CCc3ccccc3CC2)nc(-c2ccccn2)n1 [GSK J4 HCl]")
77.9
>>> measvalue("CCCCCCCCN=c1ccn(CCCCCCCCCCn2ccc(=NCCCCCCCC)cc2)cc1 [Octenidine dihydrochloride]")
103
>>> measvalue("COc1cc2c(NC3CCN(C)CC3)nc(N3CCCN(C)CC3)nc2cc1OCCCN(C)C")
83.2
>>> measvalue("Cc1cc2nc3ccc(N(C)C)cc3[s+]c2cc1N [Tolonium chloride]")
77.8
>>> measvalue("COc1cc2c(NC3CCN(C4CCCCC4)CC3)nc(N3CCCN(C(C)C)CC3)nc2cc1OCCCN1CCCCC1")
91.3
>>> measvalue("CC(C)Nc1cccnc1N1CCN(C(=O)c2cc3cc(NS(C)(=O)=O)ccc3[nH]2)CC1 [Delavirdine (mesylate)]")
27.2
>>> measvalue("COc1cc2c(NC3CCN(C(C)C)CC3)nc(N3CCC(F)(F)CC3)nc2cc1OCCCN1CCCC1")
80.2
>>> measvalue("COCCn1c2c([n+](Cc3cnccn3)c1C)C(=O)c1ccccc1C2=O")
12.4

###

// reported IC50 for each item listed
- measurementTarget: SARS‐CoV‐2 Nsp15 (Severe acute respiratory syndrome coronavirus 2, UniProt P0DTD1)
- assayMethodText: biochemical
- conditionInfo: 1 mM DTT buffer; confidence interval in brackets; read-out: IC50 + DTT (μM) (CI in μM)
resultType: IC50

>>> measvalue("CC[N+](C)(CC)CCC[n+]1c(-c2ccccc2)c2cc(N)ccc2c2ccc(N)cc21.[I-].[I-] [Propidium‐iodide]")
"0.9 µM"
>>> measvalue("CC(C)Nc1cccnc1N1CCN(C(=O)c2cc3cc(NS(C)(=O)=O)ccc3[nH]2)CC1 [Delavirdine (mesylate)]")
"2.3 µM"
>>> measvalue("CN[C@H](CC(C)C)C(=O)N[C@H]1C(=O)N[C@@H](CC(N)=O)C(=O)N[C@H]2C(=O)N[C@H]3C(=O)N[C@H](C(=O)N[C@H](C(=O)O)c4cc(O)cc(O)c4-c4cc3ccc4O)[C@H](O[C@H]3C[C@](C)(N)[C@@H](O)[C@H](C)O3)c3ccc(c(Cl)c3)Oc3cc2cc(c3O[C@@H]2O[C@H](CO)[C@@H](O)[C@H](O)[C@H]2O[C@H]2C[C@](C)(NCc3ccc(-c4ccc(Cl)cc4)cc3)[C@@H](O)[C@H](C)O2)Oc2ccc(cc2Cl)[C@H]1O.O=P(O)(O)O.O=P(O)(O)O [Oritavancin (diphosphate)]")
"2.5 µM"
>>> measvalue("COc1cc2c(cc1OC)CN(CCc1ccc(NC(=O)c3cccc4c(=O)c5cccc(OC)c5[nH]c34)cc1)CC2")
"4.9 µM"

###

- measurementTarget: SARS‐CoV‐2 Nsp15 (Severe acute respiratory syndrome coronavirus 2, UniProt P0DTD1)
- assayMethodText: biochemical
- Format: biochemical
- conditionInfo: 10 µM, L-cysteine buffer; read-out: Inhibition % +L-Cys 10 µM
// reported inhibition at 10 µM for each item listed
resultType: inhibition at 10 µM

>>> measvalue("COc1cc2c(cc1OC)CN(CCc1ccc(NC(=O)c3cccc4c(=O)c5cccc(OC)c5[nH]c34)cc1)CC2")
"15.9%"
>>> measvalue("CC1(C)CCC2=C(O1)C(=O)c1ccccc1C2=O")
"28.6%"
>>> measvalue("NCCNc1ccc(NCCN)c2c1C(=O)c1ccncc1C2=O [Pixantrone (dimaleate)]")
"72.8%"
>>> measvalue("COc1cccc2c1C(=O)c1c(O)c3c(c(O)c1C2=O)C[C@@](O)(C(=O)CO)C[C@@H]3O[C@H]1C[C@H](N2CCO[C@H](OC)C2)[C@H](O)[C@H](C)O1")
"69%"
>>> measvalue("CN(C)CCNc1nc2cc(O)ccc2c2c1C(=O)c1ccccc1-2.Cl.Cl [TAS‐103 (dihydrochloride)]")
"-33.9%"
>>> measvalue("COc1cc2c(NC3CCN(CC4CCCCC4)CC3)nc(N3CCCN(C(C)C)CC3)nc2cc1OCCCN1CCCCC1")
"79.3%"
>>> measvalue("COc1cc2c(NC3CCN(C(C)C)CC3)nc(C3CCCCC3)nc2cc1OCCCN1CCCC1")
"69.9%"
>>> measvalue("COc1cc2c(NC3CCN(C)CC3)nc(N3CCCN(C)CC3)nc2cc1OCCOCCN(C)C")
"72.9%"

###

- measurementTarget: SARS‐CoV‐2 Nsp15 (Severe acute respiratory syndrome coronavirus 2, UniProt P0DTD1)
- assayMethodText: biochemical
- conditionInfo: primary screen, 10 μM compound, 1 mM DTT buffer, normalized to 50 μM Congo red (100%) and DMSO (0%); read-out: PS inhibition % 10 μM (single point measurement)
// reported inhibition at 10 µM for each item listed
resultType: inhibition at 10 µM

>>> measvalue("COc1cc2c(NC3CCN(C)CC3)nc(N3CCCN(C)CC3)nc2cc1OCCOCCN(C)C")
"63.9%"
>>> measvalue("COCCn1c2c([n+](Cc3cnccn3)c1C)C(=O)c1ccccc1C2=O")
"74%"
>>> measvalue("COc1cc2c(NC3CCN(C(C)C)CC3)nc(N3CCC(F)(F)CC3)nc2cc1OCCCN1CCCC1")
"56.9%"
>>> measvalue("CC(C)Nc1cccnc1N1CCN(C(=O)c2cc3cc(NS(C)(=O)=O)ccc3[nH]2)CC1 [Delavirdine (mesylate)]")
"80.7%"
>>> measvalue("COc1cc2c(NC3CCN(C4CCCCC4)CC3)nc(N3CCCN(C(C)C)CC3)nc2cc1OCCCN1CCCCC1")
"75.3%"
>>> measvalue("Cc1cc2nc3ccc(N(C)C)cc3[s+]c2cc1N [Tolonium chloride]")
"72%"
>>> measvalue("COc1cc2c(NC3CCN(CC4CCCCC4)CC3)nc(N3CCCN(C(C)C)CC3)nc2cc1OCCCN1CCCCC1")
"84.8%"
>>> measvalue("NCCNc1ccc(NCCN)c2c1C(=O)c1ccncc1C2=O [Pixantrone (dimaleate)]")
"82.3%"
